Listing: melting point of selected compounds

Solved entries:
| compound | value measured |
| --- | --- |
| CCCC(CCC)c1ccc(OCc2ccc(-c3csc(CN(CC(=O)O)CC(=O)Nc4ccc(N(C)C)cc4)n3)cc2)cc1 [Example 1-97] | 192.5 °C |
| CCCC(CCC)c1ccc(OCc2ccc(-c3csc(COc4cc(C(=O)O)ccc4N)c3)cc2)cc1 [Example 4-61] | 156.5 to 165.5 °C |
| CCN(C[C@H]1CC[C@H](c2ccc(C(C)(C)C)cc2)CC1)c1ccc(-c2csc(CN3CCC(c4ccc(C(=O)O)cc4)CC3)c2)cc1 [Example 4-68] | 225 to 229 °C (dec.) |
| CCCC(CCC)c1ccc(OCc2ccc(-c3csc(CN4Cc5ccccc5CC4C(=O)O)n3)cc2)cc1 (stereo not shown) [Example 1-45] | 117 to 126 °C |
| CCCC(CCC)c1ccc(OCc2ccc(-c3csc(CN(CC(=O)O)Cc4ccc5ccccc5n4)c3)cc2)cc1 [Example 4-87] | 137.3 to 138.7 °C |

Briefly, melting point measured for CCC(CC)c1ccc(N(Cc2ccc(-c3csc(COc4cncc(C(=O)OC)c4)n3)cc2)C(C)C)cc1 [Example 1-89] : 111 to 113 °C

Briefly, melting point measured for CCCC(CCC)c1ccc(COc2ccc(-c3csc(COc4cncc(C(=O)O)c4)n3)c(C)c2)cc1 [Example 3-114] : 148 to 150 °C
